B1: KCNA3 (parent)
chain: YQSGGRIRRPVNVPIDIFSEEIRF

Variants of: B1
Test: protein stability index of a GFP-peptide fusion (GPS, HEK-293T) (PSI 1-6); higher = more stable;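 further: lentivirally expressed fusions sorted by FACS into six bins by GFP to DsRed ratio, PSI derived from sequencing read proportions per bin multiplied by bin number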
Settings: c terminus: a fixed tail appended
Each entry gets label 0 if its protein stability index stays under 2, and label 1 if its protein stability index is 2 or above.

N12D
label 0
R9S
label 1
R8I
label 1
R23K
label 1
P14M
label 1

Here is another variant to look at.
Inquiry: hey, is protein stability index for this one >= 2? I7F
Reply text: label 0

Data origin, for the record: the supplement of paper PMC10567573
